B1: HESX1 (parent)
chain: SKYENYFSASERLSLKRELSWYRG

variants of: B1; experiment: protein stability index of a GFP-peptide fusion (GPS, HEK-293T) (PSI 1-6); higher = more stable; conditions: c terminus: a fixed tail appended;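 also: lentivirally expressed fusions sorted by FACS into six bins by GFP to DsRed ratio, PSI derived from sequencing read proportions per bin multiplied by bin number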
Lab note: compare protein stability index against 2. Equal or greater, write MET. Smaller, write NOT MET.

Here are 5 variants together with their reported answers.
INPUT: Exam item: decide whether the reported protein stability index for S20F is at least 2.
OUTPUT: NOT MET

INPUT: Exam item: decide whether the reported protein stability index for A9W is at least 2.
OUTPUT: NOT MET

INPUT: Exam item: decide whether the reported protein stability index for Y6D is at least 2.
OUTPUT: MET

INPUT: Exam item: decide whether the reported protein stability index for E18D is at least 2.
OUTPUT: NOT MET

INPUT: Exam item: decide whether the reported protein stability index for Y22T is at least 2.
OUTPUT: NOT MET

Continuing:
INPUT: Exam item: decide whether the reported protein stability index for N5D is at least 2.
OUTPUT: NOT MET

INPUT: Exam item: decide whether the reported protein stability index for L19K is at least 2.
OUTPUT: NOT MET

INPUT: Exam item: decide whether the reported protein stability index for S8I is at least 2.
OUTPUT: NOT MET

INPUT: Exam item: decide whether the reported protein stability index for L13K is at least 2.
OUTPUT: NOT MET

INPUT: Exam item: decide whether the reported protein stability index for R12K is at least 2.
OUTPUT: NOT MET

INPUT: Exam item: decide whether the reported protein stability index for K16F is at least 2.
OUTPUT: NOT MET

INPUT: Exam item: decide whether the reported protein stability index for L19W is at least 2.
OUTPUT: NOT MET

INPUT: Exam item: decide whether the reported protein stability index for R17D is at least 2.
OUTPUT: MET

INPUT: Exam item: decide whether the reported protein stability index for W21I is at least 2.
OUTPUT: MET

INPUT: Exam item: decide whether the reported protein stability index for S14I is at least 2.
OUTPUT: NOT MET

INPUT: Exam item: decide whether the reported protein stability index for G24T is at least 2.
OUTPUT: MET

INPUT: Exam item: decide whether the reported protein stability index for A9E is at least 2.
OUTPUT: MET

INPUT: Exam item: decide whether the reported protein stability index for E11Y is at least 2.
OUTPUT: NOT MET

INPUT: Exam item: decide whether the reported protein stability index for R23H is at least 2.
OUTPUT: MET

INPUT: Exam item: decide whether the reported protein stability index for W21C is at least 2.
OUTPUT: MET
